Reported EC50 values follow for various compounds
- Target Or Test System: HNF-4α (Rattus norvegicus)
- Construct: GST-HNF-4α(LBD) fusion protein consisting of amino acids 96-455 of wild type HNF-4α fused to GST; fused on or other part: Glutathione-S-transferase (GST) at the N-terminus of the LBD construct; 6-histidine tag on the full-length construct
- Run Description: Ligand binding assay with [3H]palmitoyl(16:0)-CoA on recombinant GST-HNF-4α(LBD) or His-HNF-4α
- Recorded Conditions: competition with 8 nM [3H]palmitoyl(16:0)-CoA; GST-HNF-4α(LBD) or His-HNF-4α; read-out: EC50 (50% specific competition)
- Sequence (P22449 105-464 isoform P22449-2 limits assumed): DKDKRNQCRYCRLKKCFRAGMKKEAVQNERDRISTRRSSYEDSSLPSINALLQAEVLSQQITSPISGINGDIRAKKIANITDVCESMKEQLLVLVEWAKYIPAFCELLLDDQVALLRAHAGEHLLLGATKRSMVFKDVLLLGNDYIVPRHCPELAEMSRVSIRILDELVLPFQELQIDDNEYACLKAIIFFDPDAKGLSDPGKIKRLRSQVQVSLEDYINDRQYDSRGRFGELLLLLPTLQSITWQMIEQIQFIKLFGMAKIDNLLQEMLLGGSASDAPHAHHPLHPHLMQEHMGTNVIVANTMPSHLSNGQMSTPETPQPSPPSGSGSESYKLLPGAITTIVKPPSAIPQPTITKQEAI

Compound	Target Or Test System	EC50 [nM]
CC(C)(Oc1ccc(C2CCCc3ccccc32)cc1)C(=O)O (centres unmarked) [Nafenopin, reference compound]	HNF-4α (Rattus norvegicus)	90000
CCCCCCCCCCCCCC(=O)SCCNC(=O)CCNC(=O)[C@H](O)C(C)(C)COP(=O)(O)OP(=O)(O)OC[C@H]1O[C@@H](n2cnc3c(N)ncnc32)[C@H](O)[C@@H]1OP(=O)(O)O [myristoyl(14:0)-CoA, reference compound]	HNF-4α (Rattus norvegicus)	1400
CC/C=C\C/C=C\C/C=C\C/C=C\C/C=C\C/C=C\CCC(=O)SCCNC(=O)CCNC(=O)[C@H](O)C(C)(C)COP(=O)(O)OP(=O)(O)OC[C@H]1O[C@@H](n2cnc3c(N)ncnc32)[C@H](O)[C@@H]1OP(=O)(O)O	HNF-4α (Rattus norvegicus)	1600
CC(C)(CCCCCCCCCCC(C)(C)CC(=O)O)CC(=O)O	HNF-4α (Rattus norvegicus)	8000
CCCCCCCCCCCCCCCC(=O)SCCNC(=O)CCNC(=O)[C@H](O)C(C)(C)COP(=O)(O)OP(=O)(O)OC[C@H]1O[C@@H](n2cnc3c(N)ncnc32)[C@H](O)[C@@H]1OP(=O)(O)O [Palmitoyl(16:0)-CoA, reference compound]	HNF-4α (Rattus norvegicus)	2600

###

Below: a set of entries, each annotated with reported EC50.
- Target Or Test System: HNF-4α (Rattus norvegicus)
- Construct: GST-HNF-4α(LBD) fusion protein consisting of amino acids 96-455 of wild type HNF-4α fused to GST; fused on or other part: Glutathione-S-transferase (GST) at the N-terminus of the LBD construct; 6-histidine tag on the full-length construct
- Run Description: Ligand binding assay with [3H]palmitoyl(16:0)-CoA on recombinant GST-HNF-4α(LBD) or His-HNF-4α
- Recorded Conditions: competition with 8 nM [3H]palmitoyl(16:0)-CoA; GST-HNF-4α(LBD) or His-HNF-4α; read-out: EC50 (50% specific competition)

Smiles Text	Unit Abbreviation	EC50
CCCCC/C=C\C/C=C\CCCCCCCC(=O)SCCNC(=O)CCNC(=O)[C@H](O)C(C)(C)COP(=O)(O)OP(=O)(O)OC[C@H]1O[C@@H](n2cnc3c(N)ncnc32)[C@H](O)[C@@H]1OP(=O)(O)O	µM	1.9
CC(C)(CCCCCCCCC(C)(C)CC(=O)O)CC(=O)O	µM	40
CCCCCCCC/C=C\CCCCCCCC(=O)SCCNC(=O)CCNC(=O)[C@H](O)C(C)(C)COP(=O)(O)OP(=O)(O)OC[C@H]1O[C@@H](n2cnc3c(N)ncnc32)[C@H](O)[C@@H]1OP(=O)(O)O	µM	1.4
CC(C)(CCCCCCCCCCCCC(C)(C)CC(=O)O)CC(=O)O	µM	8

###

- Target Or Test System: HNF-4α (Rattus norvegicus, UniProt P22449)
- Run Description: Transfection assay: COS-7 cells cotransfected with (C3P)3-TK-CAT reporter and pSG5-HNF-4α
- Format: cell-based
- Parameters: expressed in transfected cells; host or cells: COS-7
- Recorded Conditions: proligands added to culture medium of COS-7 cells (FIG. 4b); read-out: EC50 of HNF-4α suppression (CAT activity)
- Sequence (P22449 1-464 isoform P22449-2): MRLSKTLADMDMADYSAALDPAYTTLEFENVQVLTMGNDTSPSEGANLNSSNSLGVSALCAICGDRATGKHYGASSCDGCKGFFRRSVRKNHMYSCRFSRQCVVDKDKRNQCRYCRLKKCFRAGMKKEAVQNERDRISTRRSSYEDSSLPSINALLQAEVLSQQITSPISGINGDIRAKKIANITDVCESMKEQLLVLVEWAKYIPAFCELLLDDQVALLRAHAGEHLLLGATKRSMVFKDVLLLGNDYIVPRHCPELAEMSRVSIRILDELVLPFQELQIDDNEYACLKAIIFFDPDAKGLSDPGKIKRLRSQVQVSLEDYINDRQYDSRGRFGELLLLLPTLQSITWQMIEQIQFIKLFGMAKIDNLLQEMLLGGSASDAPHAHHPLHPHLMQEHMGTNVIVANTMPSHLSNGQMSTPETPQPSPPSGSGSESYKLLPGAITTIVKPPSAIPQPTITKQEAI
pEC50: −log10 of the molar value.
Measurement Type: pEC50

In [3]: df
Out[3]:
                                   compound  assay_result
0  CC(C)(Oc1ccc(C2CCCc3ccccc32)cc1)C(=O)O (stereo not drawn) [Nafenopin, reference compound]          3.80
1      CC(C)(CCCCCCCCCCC(C)(C)C(=O)O)C(=O)O          3.64
2    CC(C)(CCCCCCCCCCCCC(C)(C)C(=O)O)C(=O)O          3.82
3    CC(C)(CCCCCCCCC(C)(C)CCC(=O)O)CCC(=O)O          3.82
4  CC(C)(Oc1ccc(CCNC(=O)c2ccc(Cl)cc2)cc1)C(=O)O [Bezafibrate, reference compound]          3.59
5  CC(C)(CCCCCCCCCCCCCCC(C)(C)C(=O)O)C(=O)O          3.82

Values compiled from patent US20040171688A1.
